assay: Toxicity to mock-infected CEM cells (CC50); assay type: cell-based; conditions: human; mock-infected CEM cells; Tables I and II; read-out: CC50/μM CEM
recordedEndpoint: CC50
Returns: string containing the numeric result and its unit.

Data request: Indicate the recorded CC50 value for this compound: COC(=O)C(C)NP(=O)(OCC1C=CC(n2cnc3c(=O)[nH]c(N)nc32)C1)Oc1ccccc1 (stereo not shown) [Example A, reference compound]
Data returned: 123 µM

---

experiment: Toxicity to mock-infected CEM cells (CC50); assay type: cell-based; details: human; mock-infected CEM cells; Tables I and II; read-out: CC50/μM CEM
For each entry below, report its CC50 at 4 days value.
Please give a number only; it is taken to be in µM.

Data request: Indicate the recorded CC50 at 4 days value for this compound: Nc1nc(NC2CC2)c2ncn([C@H]3C=C[C@@H](CO)C3)c2n1 [Abacavir, reference compound]
Data returned: 78

Data request: Indicate the recorded CC50 at 4 days value for this compound: Nc1nc2c(ncn2[C@H]2C=C[C@@H](CO)C2)c(=O)[nH]1 [reference compound]
Data returned: 157
